The reader will find reported Relative Population Doubling (RPD) values listed item by item below.
- System: TK6 cells
- assay-comment: Cytostasis analysis (Relative Population Doubling, Guava ViaCount)
- Type: cell-based, human
- conditions: 50 µM, 26 h treatment, vs untreated control C (-) = 100%, mean ± SEM

COc1cc(CCN)c(OC)cc1Br: 10.0% ± 1.8

# Relative Population Doubling (RPD) (compound: COc1cc(CCN)c(OC)cc1I ) is 54.8% ± 0.9

# Relative Population Doubling (RPD) (compound: COc1ccc(OC)c(CCN)c1 ) is 34.1% ± 1.2

# Relative Population Doubling (RPD) (compound: CNC(C)Cc1ccc2c(c1)OCO2 (centres unmarked) [MDMA, 3,4-methylenedioxy-methamphetamine, reference compound] ) is 96.0% ± 1.2

# Relative Population Doubling (RPD) (compound: COc1cc(CCNCc2ccccc2OC)c(OC)cc1Br [25B-NBOMe] ) is 0.0%
